Parameter Post-emergence action against PHBPU in %: see the listing below.
system: PHBPU; test: Post-emergence herbicidal action against PHBPU; assay type: in vivo, Pharbitis purpurea; details: dosage 20 g/ha
test.readout: Post-emergence action against PHBPU in % (%)

Cc1c(C(=O)Nc2nnnn2C)ccc(C(F)F)c1C(=O)NC(C)C1CC1 (stereo not drawn) | 90
CCn1nnnc1NC(=O)c1ccc(C(F)(F)F)c(C(=O)Nc2ccccc2)c1Cl | 80
CCn1nnnc1NC(=O)c1ccc(C(F)(F)F)c(C(=O)NCC2CC2)c1SC | 80
Cn1nnnc1NC(=O)c1ccc(C(F)(F)F)c(C(=O)NCC2CC2)c1Cl | 90
CCn1nnnc1NC(=O)c1ccc(C(F)F)c(C(=O)NCCOC)c1Cl | 90
CCNC(=O)c1c(C(F)F)ccc(C(=O)Nc2nnnn2CC)c1Br | 80
CCn1nnnc1NC(=O)c1ccc(C(F)(F)F)c(C(=O)NCC2CC2)c1Br | 90
CCn1nnnc1NC(=O)c1ccc(C(F)(F)F)c(C(=O)NCC(F)F)c1SC | 90
CCn1nnnc1NC(=O)c1ccc(C(F)F)c(C(=O)NC)c1C | 80
Cn1nnnc1NC(=O)c1ccc(C(F)(F)F)c(C(=O)NCC2CC2)c1Br | 100
CCc1c(C(=O)Nc2nnnn2CC)ccc(C(F)F)c1C(=O)NC | 90
Cc1nnc(NC(=O)c2ccc(C(F)(F)F)c(C(=O)NC(C)C3CC3)c2Cl)o1 (stereo not drawn) | 80
CCn1nnnc1NC(=O)c1ccc(C(F)(F)F)c(C(=O)NCc2cccs2)c1Cl | 80
CC(NC(=O)c1c(Br)ccc(C(=O)Nc2nnnn2C)c1Cl)C1CC1 (stereo not drawn) | 80
CCNC(=O)c1c(C(F)(F)F)ccc(C(=O)Nc2nnco2)c1Cl | 90
CCc1c(C(=O)Nc2nnnn2C)ccc(C(F)(F)F)c1C(=O)NCC1CC1 | 90
CCn1nnnc1NC(=O)c1ccc(C(F)F)c(C(=O)NCC(F)(F)F)c1Br | 90
CCn1nnnc1NC(=O)c1ccc(C(F)(F)F)c(C(=O)NC(C)C2CC2)c1Cl (stereo not drawn) | 80
